Catalogue of pKd readings, one per entry.
biological target: T1, recombinant human TfR-1, His-tagged (Sino Biological 11020-H07H) (human, UniProt P02786 89-760); test: SPR, His-captured TfR1
T1 construct: bought; His-tagged; also called hTfR1; hTfR-1
T1 sequence (P02786 89-760 limits assumed): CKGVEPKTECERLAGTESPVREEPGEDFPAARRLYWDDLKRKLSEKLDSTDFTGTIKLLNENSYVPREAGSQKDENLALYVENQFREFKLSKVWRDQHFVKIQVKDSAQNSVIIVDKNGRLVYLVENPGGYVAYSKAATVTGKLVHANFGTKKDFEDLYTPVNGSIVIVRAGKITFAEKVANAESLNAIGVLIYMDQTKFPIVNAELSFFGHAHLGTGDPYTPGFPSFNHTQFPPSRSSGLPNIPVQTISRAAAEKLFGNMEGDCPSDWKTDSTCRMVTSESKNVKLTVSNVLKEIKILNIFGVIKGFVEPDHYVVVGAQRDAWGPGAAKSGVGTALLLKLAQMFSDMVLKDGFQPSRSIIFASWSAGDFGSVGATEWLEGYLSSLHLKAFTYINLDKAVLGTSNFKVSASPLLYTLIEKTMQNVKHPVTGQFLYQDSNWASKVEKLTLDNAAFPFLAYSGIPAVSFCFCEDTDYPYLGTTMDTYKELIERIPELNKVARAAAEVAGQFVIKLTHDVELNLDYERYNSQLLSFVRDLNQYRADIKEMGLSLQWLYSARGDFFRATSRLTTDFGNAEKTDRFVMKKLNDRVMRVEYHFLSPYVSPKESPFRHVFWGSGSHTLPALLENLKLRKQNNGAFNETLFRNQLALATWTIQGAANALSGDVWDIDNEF
pKd here is simply -log10 of the concentration when that concentration is written in mol/L.

Below are worked cases with known answers.
[[record]]
binder = "Clone H variant 10 VNAR-hFc (Fc fusion, not shown: a dimerising Fc or GST, also called clone H var; 10) ARVDQTPQTITKETGESLTINCVLRDSNCELSSTYWYRKKSGSTNEESISKGGRYVETVNSGSKSFSLRINDLVVEDSGTYRCNVQQFPSWFNGRYWCDVYGGGTAVTVNA"
meas_value = 8.47

[[record]]
binder = "Clone H variant 1 VNAR-hFc (Fc fusion, not shown: a dimerising Fc or GST, also called clone H var) ARVDQTPQTITKETGESLTINCVLRDSNCELSSTYWYRKKSGSTNEESISKGGRYVETVNSGSKSFSLRINDLVVEDSGTYRCNVVQWPSSSNGRYWCDVYGGGTAVTVNA"
meas_value = 8.62


Query: Item Clone H variant 3 VNAR-hFc (Fc fusion, not shown: a dimerising Fc or GST) ARVDQTPQTITKETGESLTINCVLRDSNCELSSTYWYRKKSGSTNEESISKGGRYVETVNSGSKSFSLRINDLVVEDSGTYRCNVQQFPSWGNGRYWCDVYGGGTAVTVNA : provide pKd
Result: 8.33
